Test: self-splicing fitness, log relative to wild type (ln ratio); higher = more splicing; Tetrahymena group I intron in knt gene, E. coli kanamycin selection, DiMSum; sequences stand for … in CUCUCU…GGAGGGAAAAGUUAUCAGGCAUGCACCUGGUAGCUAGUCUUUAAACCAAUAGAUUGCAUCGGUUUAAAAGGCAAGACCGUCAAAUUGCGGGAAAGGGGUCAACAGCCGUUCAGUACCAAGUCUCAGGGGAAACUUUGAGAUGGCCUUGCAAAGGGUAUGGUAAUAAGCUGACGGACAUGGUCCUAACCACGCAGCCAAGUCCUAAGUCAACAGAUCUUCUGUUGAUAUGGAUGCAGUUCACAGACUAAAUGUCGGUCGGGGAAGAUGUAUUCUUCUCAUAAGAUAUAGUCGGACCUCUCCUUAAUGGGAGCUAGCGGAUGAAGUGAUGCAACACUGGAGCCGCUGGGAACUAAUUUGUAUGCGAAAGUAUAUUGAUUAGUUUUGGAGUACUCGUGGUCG;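 further: selection with 25 µg/mL kanamycin versus none on LB agar overnight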
Conditions: 30 °C
Given measured self-splicing fitness (ln), output t if it is greater than or equal to -3 and f if not.

Solved entries (count: 5):
CCUAAGCAAUAUUACGUAGG f
GCUCAGCAAUAUUACGCAAU t
GAAGAGCAAUAUUACGACCA t
CACGAGCAAUAUUACGAGUU f
GAGUAGCAAUAUUACGUGUG t

Exam item: Does CUCGAGCAAUAUUACGCGAU have a reported self-splicing fitness (ln) of at least -3?
Marked response: f

Exam item: Does AGUUAGCAAUAUUACGAGUG have a reported self-splicing fitness (ln) of at least -3?
Marked response: f

Exam item: Does CCUAAGCAAUAUUACGAUGU have a reported self-splicing fitness (ln) of at least -3?
Marked response: t

* * *

Experiment: self-splicing fitness, log relative to wild type (ln ratio); higher = more splicing; Tetrahymena group I intron in knt gene, E. coli kanamycin selection, DiMSum; sequences stand for … in CUCUCU…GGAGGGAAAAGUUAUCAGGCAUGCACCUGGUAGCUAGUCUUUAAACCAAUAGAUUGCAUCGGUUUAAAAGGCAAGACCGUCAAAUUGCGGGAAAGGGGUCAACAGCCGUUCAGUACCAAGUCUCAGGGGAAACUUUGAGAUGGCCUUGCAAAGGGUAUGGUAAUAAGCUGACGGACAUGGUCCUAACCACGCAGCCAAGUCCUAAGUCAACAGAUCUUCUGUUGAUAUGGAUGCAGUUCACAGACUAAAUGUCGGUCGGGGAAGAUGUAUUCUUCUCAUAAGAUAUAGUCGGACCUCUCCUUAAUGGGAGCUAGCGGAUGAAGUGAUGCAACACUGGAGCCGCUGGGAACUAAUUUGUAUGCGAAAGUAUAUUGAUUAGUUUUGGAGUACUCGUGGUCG
Conditions: 37 °C
Given measured self-splicing fitness (ln), output yes (1) if it is greater than or equal to -2 and no (0) if not.

GUAAAGCAAUAUUACGAAUU yes (1)
AGUAAGCAAUAUUACGUGCU yes (1)
ACAUAGCAAUAUUACGCACC yes (1)
CCCCAGCAAUAUUACGAUCU no (0)
GUCCAGCAAUAUUACGAUGA yes (1)
UCUCAGCAAUAUUACGAGUU yes (1)

Exam item: Does GAAGAGCAAUAUUACGGAGA have a reported self-splicing fitness (ln) of at least -2?
Marked response: yes (1)

Exam item: Does AUGAAGCAAUAUUACGACCA have a reported self-splicing fitness (ln) of at least -2?
Marked response: yes (1)

Exam item: Does AGAGAGCAAUAUUACGUUAC have a reported self-splicing fitness (ln) of at least -2?
Marked response: no (0)

Exam item: Does UCAAAGCAAUAUUACGCGGG have a reported self-splicing fitness (ln) of at least -2?
Marked response: no (0)

Exam item: Does AUAUAGCAAUAUUACGCUUA have a reported self-splicing fitness (ln) of at least -2?
Marked response: yes (1)

Exam item: Does CGAAAGCAAUAUUACGGCCU have a reported self-splicing fitness (ln) of at least -2?
Marked response: yes (1)

Exam item: Does CACCAGCAAUAUUACGGUAU have a reported self-splicing fitness (ln) of at least -2?
Marked response: yes (1)

Exam item: Does CGCGAGCAAUAUUACGCAUG have a reported self-splicing fitness (ln) of at least -2?
Marked response: no (0)

Exam item: Does CGACAGCAAUAUUACGGACU have a reported self-splicing fitness (ln) of at least -2?
Marked response: yes (1)

Exam item: Does GUGAAGCAAUAUUACGAAUA have a reported self-splicing fitness (ln) of at least -2?
Marked response: yes (1)

Exam item: Does AUUAAGCAAUAUUACGCUCU have a reported self-splicing fitness (ln) of at least -2?
Marked response: yes (1)

Exam item: Does CAUUAGCAAUAUUACGUUAG have a reported self-splicing fitness (ln) of at least -2?
Marked response: yes (1)

Exam item: Does AGCAAGCAAUAUUACGCCCA have a reported self-splicing fitness (ln) of at least -2?
Marked response: yes (1)
